Origin of values: ChEMBL document CHEMBL2177052

# Experimental system: Aminopeptidase N (Sus scrofa)
# Sequence (P15145 whole entry): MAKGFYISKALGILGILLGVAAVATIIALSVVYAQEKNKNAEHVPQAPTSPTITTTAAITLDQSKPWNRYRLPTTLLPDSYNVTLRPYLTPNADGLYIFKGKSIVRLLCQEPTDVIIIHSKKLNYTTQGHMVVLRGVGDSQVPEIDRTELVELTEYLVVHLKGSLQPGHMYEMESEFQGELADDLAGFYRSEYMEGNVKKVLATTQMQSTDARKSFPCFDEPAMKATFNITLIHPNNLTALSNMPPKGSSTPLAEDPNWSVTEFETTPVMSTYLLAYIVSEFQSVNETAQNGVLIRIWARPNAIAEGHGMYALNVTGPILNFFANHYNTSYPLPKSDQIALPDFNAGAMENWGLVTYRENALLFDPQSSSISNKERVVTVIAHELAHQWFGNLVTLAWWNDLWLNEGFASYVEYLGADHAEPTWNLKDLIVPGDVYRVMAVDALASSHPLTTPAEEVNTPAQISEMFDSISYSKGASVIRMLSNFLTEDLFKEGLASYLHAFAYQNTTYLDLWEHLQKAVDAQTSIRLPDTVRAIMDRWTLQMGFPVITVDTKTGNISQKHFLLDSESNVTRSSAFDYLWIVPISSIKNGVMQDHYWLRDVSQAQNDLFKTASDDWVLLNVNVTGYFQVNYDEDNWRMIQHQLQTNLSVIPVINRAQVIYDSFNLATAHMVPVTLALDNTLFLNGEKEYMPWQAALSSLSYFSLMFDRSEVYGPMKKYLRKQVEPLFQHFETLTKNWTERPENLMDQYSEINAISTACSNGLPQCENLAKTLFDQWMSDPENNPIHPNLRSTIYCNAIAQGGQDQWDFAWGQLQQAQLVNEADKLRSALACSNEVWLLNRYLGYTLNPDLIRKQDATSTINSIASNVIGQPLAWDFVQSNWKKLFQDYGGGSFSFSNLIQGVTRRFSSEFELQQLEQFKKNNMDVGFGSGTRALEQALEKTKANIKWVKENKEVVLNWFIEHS
# Assay method text: Competitive inhibition of pig APN using L-leucine-p-nitroanilide as substrate by Dixon-plot analysis
Each record is given T if its reported Ki is strictly below 10 µM. Records at or above 10 µM are given F.

In: Report whether reported Ki is lower than 10 µM (strictly) for N[C@H]1CCc2ccccc2[C@@H](CCCc2ccccc2)C1=O (racemic)
Out: F

In: Consider next the compound N[C@H]1CCc2ccccc2[C@@H](CCc2ccccc2)C1=O (racemic) in the same way.
Out: F

In: What do you get for N[C@H]1CCc2ccccc2CC1=O ?
Out: T

In: Follow-up entry: N[C@H]1CCc2ccccc2[C@@H](Cc2ccccc2)C1=O (racemic)
Out: F

In: Another: N[C@H]1CCc2ccccc2[C@H](F)C1=O (racemic)
Out: T

In: Consider next the compound N[C@H]1CCc2ccccc2[C@H](CCc2ccccc2)C1=O (racemic) in the same way.
Out: F

In: Query N[C@H]1CCc2ccccc2/C(=C/c2ccccc2)C1=O next
Out: F
